- System: MOLM-13
- TEST DETAILS: Antiproliferative activity against human MOLM-13 cells assessed as reduction in cell viability after 72 hrs by MTS assay
- Assay type: functional
READOUT KIND: GI50 (µM)

(a) COc1cc2c(N3CCN(C(=O)Nc4ccc(OC(C)C)cc4)CC3)ncnc2cc1OCCCN1CCCCC1 [TANDUTINIB]
(b) COc1ccc(C(=O)/C=C/c2ccc(OC)c(OC)c2)c(O)c1
(c) C=CCOc1cc(OC)ccc1C(=O)/C=C/c1ccc(OC)cc1
Query :: Please sort the compounds listed above from highest to lowest GI50. Would you mind listing the labels in the order asked for?
Result :: b, c, a

---

- TARGET OR TEST SYSTEM: Receptor-type tyrosine-protein kinase FLT3 (Homo sapiens)
- Sequence (P36888 whole entry): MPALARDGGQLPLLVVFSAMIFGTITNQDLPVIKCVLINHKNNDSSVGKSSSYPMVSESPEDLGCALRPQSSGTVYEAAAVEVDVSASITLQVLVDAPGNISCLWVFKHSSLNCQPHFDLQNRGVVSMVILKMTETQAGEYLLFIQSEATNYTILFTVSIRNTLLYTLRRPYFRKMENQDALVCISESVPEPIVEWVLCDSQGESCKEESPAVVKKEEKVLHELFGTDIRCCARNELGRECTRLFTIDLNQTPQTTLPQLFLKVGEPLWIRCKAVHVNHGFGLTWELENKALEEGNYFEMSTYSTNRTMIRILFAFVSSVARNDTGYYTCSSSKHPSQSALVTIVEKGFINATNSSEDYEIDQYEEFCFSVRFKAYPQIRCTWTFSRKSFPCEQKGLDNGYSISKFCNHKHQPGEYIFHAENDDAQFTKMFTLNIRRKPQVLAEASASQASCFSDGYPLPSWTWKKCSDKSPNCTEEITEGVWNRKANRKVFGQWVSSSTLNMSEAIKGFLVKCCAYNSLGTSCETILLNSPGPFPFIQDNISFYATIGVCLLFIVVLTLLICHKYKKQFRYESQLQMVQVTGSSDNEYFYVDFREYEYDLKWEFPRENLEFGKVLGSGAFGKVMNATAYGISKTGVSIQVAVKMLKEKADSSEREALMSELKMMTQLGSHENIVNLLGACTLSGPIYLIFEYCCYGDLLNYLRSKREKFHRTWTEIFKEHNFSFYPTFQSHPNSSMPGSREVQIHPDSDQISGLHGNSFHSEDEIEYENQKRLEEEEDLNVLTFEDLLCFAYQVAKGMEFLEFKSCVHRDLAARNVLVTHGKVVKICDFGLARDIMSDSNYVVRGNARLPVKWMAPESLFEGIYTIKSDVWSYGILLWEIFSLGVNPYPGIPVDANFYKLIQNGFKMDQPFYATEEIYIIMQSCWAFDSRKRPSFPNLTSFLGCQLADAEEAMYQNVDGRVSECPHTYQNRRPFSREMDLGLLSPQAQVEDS
READOUT KIND: pIC50
# pIC50: negative log10 of molar concentration; output just the value

Query :: // map "COc1ccc(C(=O)/C=C/c2ccc(OC)c(OC)c2)c(O)c1" to recorded pIC50 (system: Receptor-type tyrosine-protein kinase FLT3 (Homo sapiens))
Result :: 4.86
